Parameter: pIC50. Scope: all listed entries.
biological target: NDM-1 (Klebsiella pneumoniae)
Sequence (C7C422 whole entry, looked up, species assumed): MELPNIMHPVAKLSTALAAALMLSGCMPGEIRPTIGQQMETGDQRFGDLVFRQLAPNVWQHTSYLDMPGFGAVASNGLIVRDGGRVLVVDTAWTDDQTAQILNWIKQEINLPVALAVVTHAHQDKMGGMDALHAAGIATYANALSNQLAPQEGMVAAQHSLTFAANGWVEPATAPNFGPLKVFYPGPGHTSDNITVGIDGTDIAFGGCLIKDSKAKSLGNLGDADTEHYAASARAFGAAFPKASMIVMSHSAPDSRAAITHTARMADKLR
pIC50: −log10 of the molar value.
measured attribute: pIC50

CC(=O)N[C@@H]1CCN(c2ccc(S(=O)(=O)N[C@@H]3CCNC3)c(S(N)(=O)=O)c2-c2nnn[nH]2)C1 [Example 95] :: 8.37
NCCC(=O)N1CCN(c2ccc(S(=O)(=O)NC[C@H](O)CN)c(S(N)(=O)=O)c2-c2nn[nH]n2)CC1 [Example 145] :: 8.77
NS(=O)(=O)c1c(S(=O)(=O)N[C@@H]2CCNC2)ccc(N2CCC(S(N)(=O)=O)CC2)c1-c1nnn[nH]1 [Example 80] :: 9.52
C[C@H](CN)NS(=O)(=O)c1ccc(N2CC[C@@H](CN)[C@@H](F)C2)c(-c2nn[nH]n2)c1S(N)(=O)=O (racemic) [Example 8] :: 9.72
NCCC1CCN(c2ccc(S(=O)(=O)N[C@@H]3CCNC3)c(S(N)(=O)=O)c2-c2nn[nH]n2)CC1 [Example 16] :: 9.14
NCCS(=O)(=O)c1ccc(N2CCCCC2)c(-c2nnn[nH]2)c1S(N)(=O)=O [Example 14] :: 8.40
NS(=O)(=O)c1c(S(=O)(=O)C2CNC2)ccc(N2CCCC(CO)C2)c1-c1nnn[nH]1 (stereo not shown) [Example 57] :: 8.61
NS(=O)(=O)c1c(S(=O)(=O)N[C@@H]2CCNC2)ccc(N2CCCC(=NO)C2=O)c1-c1nn[nH]n1 [Example 152] :: 10.10
CC1CN(c2ccc(S(=O)(=O)NC[C@H](O)CN)c(S(N)(=O)=O)c2-c2nn[nH]n2)CCN1CCO.O=C(O)C(F)(F)F.O=C(O)C(F)(F)F (stereo partly shown) [Example 176, trifluoroacetate) salt] :: 8.60
NC1(CO)CCN(c2ccc(S(=O)(=O)N[C@@H]3CCNC3)c(S(N)(=O)=O)c2-c2nnn[nH]2)C1 (stereo partly shown) [Example 84] :: 7.71
